# Measured On: 5-hydroxytryptamine receptor 6 (Homo sapiens, UniProt P50406)
# Sequence (P50406 whole entry): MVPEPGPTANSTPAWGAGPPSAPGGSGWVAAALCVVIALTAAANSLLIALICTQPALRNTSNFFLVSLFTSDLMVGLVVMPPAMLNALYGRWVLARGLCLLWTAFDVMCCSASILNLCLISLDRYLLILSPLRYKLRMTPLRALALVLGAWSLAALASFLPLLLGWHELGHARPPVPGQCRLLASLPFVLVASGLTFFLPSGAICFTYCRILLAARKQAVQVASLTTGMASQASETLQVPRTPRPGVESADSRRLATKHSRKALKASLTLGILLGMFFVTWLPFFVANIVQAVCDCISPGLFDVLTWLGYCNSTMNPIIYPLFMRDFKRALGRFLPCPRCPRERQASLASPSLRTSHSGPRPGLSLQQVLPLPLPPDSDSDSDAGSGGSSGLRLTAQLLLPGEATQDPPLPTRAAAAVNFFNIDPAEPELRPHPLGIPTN
# Protocol Details: Antagonist activity at human 5HT6 receptor expressed in HEK293F cells assessed as inhibition of 5-HT-stimulated cAMP production at […] after 30 mins by HTRF assay relative to (+/-)-6-chloro-N-(3-(1-methylpyrrolidin-3-yl)-1H-inden-5-yl)imidazo[2,1-b]thiazole-5-sulfonamide
# Format: functional, cell-based
# key: entry, value: Imax
// return numeric value only (unit: %, not printed)

Worked cases, answers included:
Compound	Unit String	Imax
CC1(C)C/C(=N\NC(=N)N)c2cc(NS(=O)(=O)c3c(Cl)nc4sccn34)ccc21.Cl	%	146
CN1CCOc2ccc(S(=O)(=O)Nc3ccc4c(c3)/C(=N/NC(=N)N)CC4)cc21	%	187
Cl.N=C(N)N/N=C1\CCc2cc(NS(=O)(=O)c3c(Cl)nc4sccn34)ccc21	%	173
CC1Cc2ccc(NS(=O)(=O)c3c(Cl)nc4sccn34)cc2/C1=N/NC(=N)N.Cl (racemic)	%	157
CN(c1ccc2c(c1)/C(=N/NC(=N)N)CC2)S(=O)(=O)c1c(Cl)nc2sccn12.Cl	%	102

Data request: Input Cl.N=C(N)N/N=C1\CCc2ccc(NS(=O)(=O)c3c(Cl)nc4sccn34)cc21 , output reported Imax.
Data returned: 127

Data request: Fill in reported Imax for this entry: O=S(=O)(Nc1ccc2c(c1)/C(=N/NC1=NCCN1)CC2)c1c(Cl)nc2sccn12
Data returned: 173

Data request: Give recorded Imax. Cl.N=C(N)N/N=C1\CCc2ccc(NS(=O)(=O)c3ccc4ccccc4c3)cc21
Data returned: 127
